# Target entity: UniProt:Q04756
# Test details: HyCoSuL P4-P2 substrate specificity screening, HGFA
# Type: biochemical
# Condition description: residue fixed at P2 position; P1-Arg HyCoSuL, 100 μM; best recognized amino acid set to 100%
# Sequence (Q04756 373-655): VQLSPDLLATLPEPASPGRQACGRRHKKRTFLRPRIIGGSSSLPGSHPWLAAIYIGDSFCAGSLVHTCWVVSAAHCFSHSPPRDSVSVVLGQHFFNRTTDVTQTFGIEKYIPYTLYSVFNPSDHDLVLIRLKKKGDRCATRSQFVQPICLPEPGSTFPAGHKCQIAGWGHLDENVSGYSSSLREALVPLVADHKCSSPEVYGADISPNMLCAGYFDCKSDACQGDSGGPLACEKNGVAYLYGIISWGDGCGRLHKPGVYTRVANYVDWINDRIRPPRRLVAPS
Response key: 1 (yes) means P2 Position Substrate Activity for HGFA (percent substrate cleavage/proteolysis) >= 5%; 0 (no) means P2 Position Substrate Activity for HGFA (percent substrate cleavage/proteolysis) < 5%.

Ask: Test whether the molecule `O=C(O)[C@@H]1CCCCN1` records P2 Position Substrate Activity for HGFA (percent substrate cleavage/proteolysis) of 5% or higher.
Reply: 0 (no)

Ask: Lookup `N[C@@H](CCCCOCc1ccccc1)C(=O)O`
Reply: 0 (no)

Ask: Lookup `CC(C)CC[C@H](N)C(=O)O`
Reply: 1 (yes)

Ask: Lookup `N[C@@H](Cc1ccc(F)cc1)C(=O)O`
Reply: 0 (no)

Ask: Lookup `Cn1cc(C[C@H](N)C(=O)O)c2ccccc21`
Reply: 0 (no)

Ask: Lookup `CC(C)[C@H](N)C(=O)O`
Reply: 1 (yes)

---

Could you please report measured IC50 for the items listed next?
# Target entity: TMPRSS2 (Homo sapiens, UniProt O15393)
# Sequence (O15393 106-492 limits assumed): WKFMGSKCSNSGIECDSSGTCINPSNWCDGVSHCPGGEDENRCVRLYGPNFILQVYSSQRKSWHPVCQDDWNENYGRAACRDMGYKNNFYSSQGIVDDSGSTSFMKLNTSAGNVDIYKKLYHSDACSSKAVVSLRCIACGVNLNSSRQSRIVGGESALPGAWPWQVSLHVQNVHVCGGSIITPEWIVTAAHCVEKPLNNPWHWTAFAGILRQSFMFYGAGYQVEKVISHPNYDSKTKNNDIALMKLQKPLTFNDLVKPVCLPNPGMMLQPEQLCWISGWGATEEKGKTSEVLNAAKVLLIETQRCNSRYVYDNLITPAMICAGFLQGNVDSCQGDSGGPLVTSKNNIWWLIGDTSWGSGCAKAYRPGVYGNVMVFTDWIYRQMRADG
# Test details: Fluorogenic kinetic enzyme inhibitor assay, TMPRSS2
# Assay type: biochemical
# Design: purchased Cusabio Technology CSB-YP023924HU
# Condition description: read-out: TMPRSS2 IC50
Number in nM, nothing else.

Ask: Which measured IC50 value corresponds to `N=C(N)NCCC[C@H](NC(=O)[C@H](Cc1ccc(F)c(F)c1)NC(=O)OCC1c2ccccc2-c2ccccc21)C(=O)c1nc2ccccc2s1` ?
Reply: 28.6

Ask: Lookup CC(=O)N[C@H]1Cc2cccc(c2)Oc2ccc(cc2)C[C@@H](C(=O)N[C@H](CCCNC(=N)N)C(=O)c2nc3ccccc3s2)NC(=O)[C@H](CC(C)C)NC1=O [VD5123A]
Reply: 1.78

Ask: Lookup `N=C(N)NCCC[C@H](NC(=O)[C@H](CCC(=O)OCc1ccccc1)NC(=O)OCc1ccccc1)C(=O)c1nc2ccccc2s1`
Reply: 75

Ask: Lookup `N=C(N)NCCC[C@H](NC(=O)[C@H](Cc1cccc(F)c1)NC(=O)OCC1c2ccccc2-c2ccccc21)C(=O)c1nc2ccccc2s1`
Reply: 12.8

Ask: Lookup CC(=O)N[C@H]1Cc2ccc(cc2)Oc2cccc(c2)C[C@@H](C(=O)N[C@H](CCCNC(=N)N)C(=O)c2nc3ccccc3s2)NC(=O)[C@H](CC(C)C)NC1=O [VD5064A]
Reply: 261

---

Could you please report measured pIC50 for the items listed next?
# Target entity: HGFA (Homo sapiens)
# Construct: purchased R&D Systems 1514-SE-010
# Test details: Fluorogenic kinetic enzyme inhibitor assay, HGFA
# Assay type: biochemical
# Condition description: read-out: HGFA IC50
# Sequence (Q04756 408-655 limits assumed): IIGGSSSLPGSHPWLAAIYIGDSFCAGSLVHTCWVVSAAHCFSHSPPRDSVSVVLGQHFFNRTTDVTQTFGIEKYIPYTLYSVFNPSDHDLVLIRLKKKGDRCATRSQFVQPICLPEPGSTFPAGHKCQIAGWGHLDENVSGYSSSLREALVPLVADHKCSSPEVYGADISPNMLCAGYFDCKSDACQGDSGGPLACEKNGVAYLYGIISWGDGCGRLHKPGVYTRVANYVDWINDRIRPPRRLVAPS
# Sequence (Q04756 373-407 partner limits assumed): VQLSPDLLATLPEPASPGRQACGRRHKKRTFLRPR
// pIC50: -log10(molar conc.)

Ask: Which measured pIC50 value corresponds to N=C(N)NCCC[C@@H](NC(=O)[C@H](Cc1ccccc1)NC(=O)[C@H](CCC(N)=O)NCCc1ccccc1)C(=O)c1nc2ccccc2s1 [CA1033-1] ?
Reply: 5.54

Ask: Lookup CC(=O)N[C@@H](CCCCNC(=N)N)C(=O)N[C@@H](CCC(C)C)C(=O)N[C@@H](CCCNC(=N)N)C(=O)c1nc2ccccc2s1 [JH1141-2]
Reply: 7.98

Ask: Lookup CC(=O)N[C@H](Cc1c[nH]c2ccccc12)C(=O)N[C@@H](Cc1ccccc1)C(=O)N[C@@H](CCCNC(=N)N)C(=O)c1nc2ccccc2s1 [PK-1-89A1]
Reply: 7.57

Ask: Lookup N=C(N)NCCC[C@H](NC(=O)[C@H](Cc1ccccc1)NC(=O)[C@H](CCC(N)=O)N1CCCCC1)C(=O)c1nc2ccccc2s1 [CA1046-2]
Reply: 6.15

The origin of these recorded values is patent US20250171495A1.
